Hello, the source for this data is patent EP1652858A1, in case you need it.

# assayed_target: HLA-Cw0702 (human)
# measurement_protocol: competition binding assay with labelled reference peptide
quantity: Ki (nM)

1. VRVCEKMAL (modifications not checked) :: 377
2. TYSTYGKFL (modifications not checked) :: 1020
3. ARLIVFPDL (modifications not checked) :: 514
